The origin of these recorded values is PubChem BioAssay (NCI).

# System: COLO 205 colon
# Assay Overview: NCI tumour cell line growth inhibition, 48 h
Measured Endpoint: TGI

{"columns": ["Compound", "TGI"],
 "data": [
  ["COc1ccc(OC)c(NS(=O)(=O)c2ccc3nc(C)n(NS(=O)(=O)c4cc(OC)ccc4OC)c(=O)c3c2)c1", "> 100 µM"]
]}

Hello, I would appreciate it if you could give TGI for each entry below.
1. COC(=O)C(Cc1nc2ccccc2[nH]c1=O)C(=O)C(=O)Nc1ccc([N+](=O)[O-])cc1[N+](=O)[O-] (stereo unspecified)
2. CCn1c(-c2cc3ccccc3cc2O)nn(C(=O)c2c(Cl)cccc2Cl)c1=S
3. O=C1c2cc(Cl)ccc2NC(=NCCCl)C2CSCN12 (stereo unspecified)

35.2 µM
> 50 µM
> 100 µM

Give TGI for all compounds that follow.
1. C=C(OC1C(C)=C2C(C1OC(=O)CCCCCCC)C(C)(OC(C)=O)CC(OC(=O)CCC)C1(O)C2OC(=O)C1(C)O)/C(C)=C/C (stereo unspecified)
2. Clc1ccc(C(SCc2ccccc2)SCc2ccccc2)cc1
3. CN(CCNCc1cn(C)c2c1ccc1ccccc12)CCNCc1cn(C)c2c1ccc1ccccc12
4. S=C(c1c[nH]c2ccccc12)N1CCN(Cc2ccccc2)CC1
5. Cc1cc(Cl)ccc1NC(=O)C(=O)C(C(=O)c1ccc2ccccc2c1)C1OC(=O)c2ccccc21 (stereo unspecified)
6. Cc1csc(/N=C\c2c(O)c3ccccc3oc2=O)n1

0.101 µM
> 10 µM
2.33 µM
31 µM
28.5 µM
> 100 µM

---

# Tested on: A498 renal
# Assay Overview: NCI tumour cell line growth inhibition, 48 h
Measured Endpoint: TGI (µM)
One number for each entry, in µM.

// solved cases for TGI follow
{"columns": ["Molecule", "Experimental Value"],
 "data": [
  ["CCCCCCCCCCCCOCCCOP(=O)([O-])OCC[N+](C)(C)C", 83.6],
  ["COc1ccccc1CNCCCN1C(=O)c2ccc3c4c(ccc(c24)C1=O)C(=O)N(CCCCNCCCN)C3=O", 12.8],
  ["COc1cccc(C2c3cc4c(cc3OC(N3CCCC3)C2C)OCO4)c1O (centres undefined)", 33.7],
  ["Cc1ccc(NC(=O)CSc2nc(=O)[nH]c3nc[nH]c23)cc1", 89.9]
]}

Recorded TGI for CC(=O)OC1CC2C(C)(C)C(=O)C=C[C@]2(C)C2CCC3(C)C(=CC(=O)C3c3ccoc3)[C@]12C (some centres undefined) , please?
33.9

---

# Tested on: NCI-H23 lung
# Assay Overview: NCI tumour cell line growth inhibition, 48 h
Measured Endpoint: log10(TGI) (log10 of the value in µM)
Remember, log10 of TGI, in µM.

{"columns": ["Molecule", "log10(TGI)"],
 "data": [
  ["O=C1/C(=C\\c2ccccn2)c2ccccc2N1c1c(Cl)cccc1Cl", 1.18],
  ["Cn1c2ccc(Br)cc2c2c3c(c4c5ccccc5[nH]c4c21)C(=O)N(O)C3=O", -0.40],
  ["CCOC(=O)CC1C(COC(=O)NC)OC(n2cnc3c(NC(=O)Nc4ccccc4)ncnc32)C1O[Si](C)(C)C(C)(C)C (stereo not given)", 1.72],
  ["Cc1noc(NC2=CC(=O)C(=O)c3ccccc32)c1C", 1.55],
  ["C=C(OC1C(C)=C2C(C1OC(=O)CCCCCCC)C(C)(OC(C)=O)CC(OC(=O)CCC)C1(O)C2OC(=O)C1(C)O)/C(C)=C/C (stereo not given)", 0.58]
]}

Batch lookup, log10(TGI) per entry.
1. CC(=O)On1c(-c2ccccc2-c2nc3ccccc3n2OC(C)=O)nc2ccccc21
2. Cc1cc(N2CCSCC2)nc(NC2CCCC(Nc3ccnc4cc(Cl)ccc34)C2)n1 (stereo not given)

1: 1.88; 2: 0.90

Go through the list and state log10(TGI) for each entry.
1. C/C=C/C1OC(O)(C(C)C(O)[C@H](C)C2OC(=O)/C(OC)=C/C(C)=C/[C@@H](C)[C@@H](O)[C@@H](C)C(O)C(C)C/C(C)=C/C=C/C2OC)C[C@@H](OC2CC(O)C(OC(N)=O)C(C)O2)C1C (stereo not given in full)
2. COc1cccc(C2c3cc4c(cc3OC(N3CCCC3)C2C)OCO4)c1O (stereo not given)
3. CCN(CC)CCCC(C)N=C(C1=C(C(=NC(C)CCCN(CC)CC)c2cccc(OC)c2)C(=O)NC1=O)c1cccc(OC)c1 (stereo not given)

[1.18, 1.54, 0.96]
